The measurements presented in this section are drawn from PubChem BioAssay (NCI).

Tested on: HOP-62 NSCLC
assay_comment: NCI-60 one-dose screen, 48 h (100 = growth as untreated, 0 = no growth, -100 = all killed)
assay_setup: 10 µM unless noted
Method: Growth inhibition of the HOP-62 human Non-Small Cell Lung tumor cell line is measured as a screen for anti-cancer activity. Cells are grown in 96 well plates and exposed to the test compound for 48 hours. Compounds are tested at a single concentration, which is 10^-5 M for most compounds. The reported endpoint is percent growth (GI% or GIPRCNT), where numbers from 0 - 100% represent growth inhibition, and numbers from -100% - 0 represent cell death. […]
About 83,000 compounds went through this panel and 20% of them were active in at least one assay; those are over-represented in the sample as a whole.
endpoint_name: growth (%)

{"molecule": "C/C(=C(/c1ccc(Cl)cc1)c1ccc(OCCN2CCCCCC2)cc1)c1ccccc1", "number": 90.3}
{"molecule": "CC(C)CC(=O)Nc1n[nH]c2c1CN(C(=O)C1CCN(C)CC1)C2(C)C", "number": -14.3}
{"molecule": "Cc1cn(-c2cc(NC(=O)c3ccc(C)c(Nc4nccc(-c5cccnc5)n4)c3)cc(C(F)(F)F)c2)cn1", "number": 47.5}
{"molecule": "COc1cc(-c2nc(C(=O)Nc3ccc(C)cc3)nn2-c2ccc(F)c(F)c2)cc(OC)c1OC", "number": 86}
{"molecule": "O=c1sn(-c2cccc3ccccc23)c(=O)n1Cc1ccccc1", "number": 76.6}
{"molecule": "CC(C)NC[C@@H](C(=O)N1CCN(c2ncnc3c2[C@H](C)C[C@H]3O)CC1)c1ccc(Cl)cc1", "number": 54}
{"molecule": "COc1ccc(-c2ccc3c(N4CCOC[C@@H]4C)nc(N4CCOC[C@@H]4C)nc3n2)cc1CO", "number": -12.9}
{"molecule": "COc1ccc(-c2cc3c(oc2=O)-c2ccccc2OC3OC(C)=O)cc1 (centres undefined)", "number": 98.8}
{"molecule": "CCc1cc2c(cc1N1CCC(N3CCOCC3)CC1)C(C)(C)c1[nH]c3cc(C#N)ccc3c1C2=O", "number": -61.7}

###

Below, each of the compounds is paired with its reported growth value.
Test system: SK-MEL-5 melanoma
assay_comment: NCI-60 one-dose screen, 48 h (100 = growth as untreated, 0 = no growth, -100 = all killed)
assay_setup: 10 µM unless noted
This is part of a sample that, as a whole, favours compounds with a hit. Of some 83,000 tested, about 20% had one in any assay.

{"chem_smiles": "O=C(Nc1cnn2ccc(N3CCC[C@@H]3c3cc(F)ccc3F)nc12)N1CC[C@H](O)C1", "unit_of_measure": "%", "growth": 97.8}
{"chem_smiles": "CNC(=O)c1nn(C)c2c1C(C)(C)Cc1cnc(Nc3ccc(N4CCN(C)CC4)cc3)nc1-2", "unit_of_measure": "%", "growth": 7.31}
{"chem_smiles": "C[C@@H]1COC(Nc2ccc3ncnc(Nc4ccc(OCc5nccs5)c(Cl)c4)c3c2)=N1", "unit_of_measure": "%", "growth": -39}
{"chem_smiles": "COc1cc2c(Oc3ccc(NC(=O)C4(C(=O)Nc5ccc(F)cc5)CC4)cc3F)ccnc2cc1OCCCN1CCOCC1", "unit_of_measure": "%", "growth": -96.1}
{"chem_smiles": "Cc1cn(-c2cc(NC(=O)c3ccc(C)c(Nc4nccc(-c5cnccn5)n4)c3)cc(C(F)(F)F)c2)cn1", "unit_of_measure": "%", "growth": 57.9}
{"chem_smiles": "O=C(Nc1ccc(Nc2ncnc3sc4c(c23)CCOC4)cc1)Nc1ccc(Cl)c(C(F)(F)F)c1", "unit_of_measure": "%", "growth": 98.1}
{"chem_smiles": "Cc1ccc(NC(=O)c2ccc(CN3CC[C@H](N(C)C)C3)c(C(F)(F)F)c2)cc1Nc1nccc(-c2cncnc2)n1", "unit_of_measure": "%", "growth": -96.6}
{"chem_smiles": "C=CCC(=O)N[C@H](/C=C/C(=O)O)Cc1ccc(-c2cc(Cl)cc(Cl)c2)cc1", "unit_of_measure": "%", "growth": 95.7}
